- TEST SUMMARY: Solubility of synthesized polypeptides
- CONDITION INFO: in water (H2O)
Residues, ends and D or L forms follow the SMILES beside them.
ENDPOINT LABEL: Solubility (mg/ml in water)

INSERT INTO measurements (compound, readout_units, recorded_result) VALUES
  ('CC(C)[C@H](N)C(=O)N[C@@H](CCC(=O)O)C(=O)N[C@@H](Cc1ccc(O)cc1)C(=O)N[C@@H](Cc1ccccc1)C(=O)O', 'mg/ml in water', 1),
  ('CC(C)C[C@H](NC(=O)[C@@H](N)Cc1ccc(O)cc1)C(=O)N[C@@H](CC(=O)O)C(=O)N[C@@H](CC(N)=O)C(=O)O [YLDN, Tyr-Leu-Asp-Asn] (H-YLDN-OH; N-terminus and C-terminus assumed)', 'mg/ml in water', 1),
  ('CC(C)C[C@H](N)C(=O)N[C@@H](CC(=O)O)C(=O)N[C@@H](CC(N)=O)C(=O)N[C@@H](Cc1ccc(O)cc1)C(=O)O [LDNY, Leu-Asp-Asn-Tyr] (H-LDNY-OH; N-terminus and C-terminus assumed)', 'mg/ml in water', 1);

---

- TEST SUMMARY: Solubility of synthesized polypeptides
- CONDITION INFO: in water (H2O)
Residues, ends and D or L forms follow the SMILES beside them.
ENDPOINT LABEL: Solubility (mg/ml in H2O)

INSERT INTO assay_data (compound, endpoint_label, recorded_result) VALUES
  ('CC(C)C[C@H](NC(=O)[C@H](Cc1ccc(O)cc1)NC(=O)CN)C(=O)O [GYL, Gly-Tyr-Leu] (H-Gly-Tyr-Leu-OH; N-terminus and C-terminus assumed)', 'Solubility', 1),
  ('N=C(N)NCCC[C@H](N)C(=O)N[C@@H](Cc1ccc(O)cc1)C(=O)N[C@@H](Cc1ccccc1)C(=O)O [Arg-Tyr-Phe] (H-Arg-Tyr-Phe-OH; N-terminus and C-terminus assumed)', 'Solubility', 1);

---

- TARGET ENTITY: xanthine oxidase (XO) of cow's milk (Bos taurus, UniProt P80457)
- Construct: xanthine oxidase (XO) of cow's milk (from Wako Pure Chemical); purchased Wako Pure Chemical; host or cells: cow's milk (natural source)
- Sequence (P80457 whole entry): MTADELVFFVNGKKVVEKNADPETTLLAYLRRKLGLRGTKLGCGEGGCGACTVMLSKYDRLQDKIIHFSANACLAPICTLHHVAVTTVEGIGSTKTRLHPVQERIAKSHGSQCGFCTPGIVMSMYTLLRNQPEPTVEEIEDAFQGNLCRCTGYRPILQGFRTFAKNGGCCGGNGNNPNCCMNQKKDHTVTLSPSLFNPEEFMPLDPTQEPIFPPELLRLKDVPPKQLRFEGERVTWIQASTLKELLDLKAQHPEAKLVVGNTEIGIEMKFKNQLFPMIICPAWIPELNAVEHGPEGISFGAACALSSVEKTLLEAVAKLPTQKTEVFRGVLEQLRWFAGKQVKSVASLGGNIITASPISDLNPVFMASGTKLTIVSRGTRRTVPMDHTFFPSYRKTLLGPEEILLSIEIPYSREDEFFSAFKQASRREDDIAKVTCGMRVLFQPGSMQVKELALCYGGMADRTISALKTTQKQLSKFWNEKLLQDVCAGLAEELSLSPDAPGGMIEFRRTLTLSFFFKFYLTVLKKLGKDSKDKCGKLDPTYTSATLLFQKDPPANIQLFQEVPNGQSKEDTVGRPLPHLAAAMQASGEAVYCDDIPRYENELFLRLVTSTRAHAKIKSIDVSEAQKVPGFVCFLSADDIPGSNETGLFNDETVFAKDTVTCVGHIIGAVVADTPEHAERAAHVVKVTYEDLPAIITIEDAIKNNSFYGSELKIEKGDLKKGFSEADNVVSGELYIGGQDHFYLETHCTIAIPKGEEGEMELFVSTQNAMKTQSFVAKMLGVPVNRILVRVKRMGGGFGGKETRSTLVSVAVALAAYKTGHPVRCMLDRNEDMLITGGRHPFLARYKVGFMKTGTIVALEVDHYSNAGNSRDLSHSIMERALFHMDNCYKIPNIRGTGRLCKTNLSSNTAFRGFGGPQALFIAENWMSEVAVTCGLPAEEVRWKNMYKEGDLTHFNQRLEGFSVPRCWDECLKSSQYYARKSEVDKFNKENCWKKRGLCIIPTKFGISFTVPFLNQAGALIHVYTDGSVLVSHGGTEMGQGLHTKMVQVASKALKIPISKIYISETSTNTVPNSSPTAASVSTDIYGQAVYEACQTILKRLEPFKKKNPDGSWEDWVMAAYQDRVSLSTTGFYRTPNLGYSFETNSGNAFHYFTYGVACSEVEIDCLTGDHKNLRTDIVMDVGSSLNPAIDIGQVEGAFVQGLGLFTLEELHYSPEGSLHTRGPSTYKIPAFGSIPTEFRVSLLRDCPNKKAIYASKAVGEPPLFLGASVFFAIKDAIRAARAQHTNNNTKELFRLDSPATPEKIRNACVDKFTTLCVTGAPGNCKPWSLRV
- TEST SUMMARY: Uric acid synthetase inhibitory activity of peptides that are part of SEQ ID No. 1
- Type: biochemical
- CONDITION INFO: 15 μM xanthine, 50 mM tris-HCl pH 7.4, 37° C., 10 minutes
Residues, ends and D or L forms follow the SMILES beside them.
ENDPOINT LABEL: xanthine oxidase activity in system containing the peptide

INSERT INTO results (compound, target_entity, recorded_result) VALUES
  ('CC(C)C[C@H](N)C(=O)N[C@@H](CC(=O)O)C(=O)N[C@@H](CC(N)=O)C(=O)N[C@@H](Cc1ccc(O)cc1)C(=O)O [LDNY, Leu-Asp-Asn-Tyr] (H-LDNY-OH; N-terminus and C-terminus assumed)', 'xanthine oxidase (XO) of cow''s milk (Bos taurus, UniProt P80457)', 'inhibited'),
  ('CC(C)C[C@H](NC(=O)[C@@H](N)Cc1ccc(O)cc1)C(=O)N[C@@H](CC(=O)O)C(=O)N[C@@H](CC(N)=O)C(=O)O [YLDN, Tyr-Leu-Asp-Asn] (H-YLDN-OH; N-terminus and C-terminus assumed)', 'xanthine oxidase (XO) of cow''s milk (Bos taurus, UniProt P80457)', 'inhibited'),
  ('CC(C)C[C@H](N)C(=O)N[C@@H](CC(=O)O)C(=O)O [LD] (H-Leu-Asp-OH; N-terminus and C-terminus assumed)', 'xanthine oxidase (XO) of cow''s milk (Bos taurus, UniProt P80457)', 'inhibited'),
  ('NC(=O)C[C@H](NC(=O)[C@@H](N)CC(=O)O)C(=O)O [DN] (H-Asp-Asn-OH; N-terminus and C-terminus assumed)', 'xanthine oxidase (XO) of cow''s milk (Bos taurus, UniProt P80457)', 'inhibited');

---

- TEST SUMMARY: Solubility of synthesized polypeptides
- CONDITION INFO: in water (H2O)
Residues, ends and D or L forms follow the SMILES beside them.
ENDPOINT LABEL: Solubility (mg/ml in H2O)

INSERT INTO results (molecule, recorded_result) VALUES
  ('CC(C)[C@H](N)C(=O)N[C@@H](Cc1ccc(O)cc1)C(=O)N[C@@H](CCC(N)=O)C(=O)O [Val-Tyr-Gln] (H-Val-Tyr-Gln-OH; N-terminus and C-terminus assumed)', 1),
  ('N[C@@H](Cc1ccccc1)C(=O)N[C@@H](Cc1ccc(O)cc1)C(=O)O [Phe-Tyr] (H-Phe-Tyr-OH; N-terminus and C-terminus assumed)', 1),
  ('CC(C)C[C@H](NC(=O)[C@H](CC(N)=O)NC(=O)[C@@H](N)Cc1ccc(O)cc1)C(=O)O [YNL, Tyr-Asn-Leu] (H-Tyr-Asn-Leu-OH; N-terminus and C-terminus assumed)', 1),
  ('NC(=O)CC[C@H](NC(=O)[C@H](Cc1c[nH]c2ccccc12)NC(=O)[C@H](CC(N)=O)NC(=O)[C@@H](N)CO)C(=O)O [Ser-Asn-Trp-Gln] (H-SNWQ-OH; N-terminus and C-terminus assumed)', 1);
